meta.source: paper PMC6757234

systemName: CB2 receptor (Homo sapiens, UniProt P34972)
Construct: host or cells: CHO-K1-CB2
Sequence (P34972 whole entry): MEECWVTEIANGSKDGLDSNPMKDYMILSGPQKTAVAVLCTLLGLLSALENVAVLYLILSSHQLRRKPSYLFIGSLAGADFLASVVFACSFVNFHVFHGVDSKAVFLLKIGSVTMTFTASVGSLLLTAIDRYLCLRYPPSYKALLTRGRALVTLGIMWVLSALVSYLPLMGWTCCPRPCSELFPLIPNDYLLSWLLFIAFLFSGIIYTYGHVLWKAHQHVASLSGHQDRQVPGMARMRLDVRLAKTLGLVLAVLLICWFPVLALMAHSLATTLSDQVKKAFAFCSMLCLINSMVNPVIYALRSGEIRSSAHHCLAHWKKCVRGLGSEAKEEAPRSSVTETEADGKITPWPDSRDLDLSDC
methodSummary: cAMP assay (HitHunter) in CHO-K1-CB2 cells, agonist and antagonist modes
Format: cell-based
conditionContext: percentage of the response to CP-55940; agonist or antagonist mode
observable: CB2 Efficacy (%)

1) CCCCCc1cc2c(c(O)c1C(=O)O)[C@@H]1C=C(C)CC[C@H]1C(C)(C)O2 [Δ^9-THCA, Δ^9-tetrahydrocannabinolic acid]	100
2) COc1ccc(C(=O)c2c(C)n(CCN3CCOCC3)c3cc(I)ccc23)cc1	100
3) C=C(C)[C@@H]1CCC(C)=C[C@H]1c1c(O)cc(CCCCC)cc1O [CBD, cannabidiol, reference compound]	100
4) CCCCCCC(C)(C)c1ccc([C@@H]2C[C@H](O)CC[C@H]2CCCO)c(O)c1 [CP-55940, reference compound]	100
5) C=C(C)[C@@H]1CCC(C)=C[C@H]1c1c(O)cc(CCCCC)c(C(=O)O)c1O	−23
6) CCCCCc1cc(O)c2c(c1)OC(C)(C)[C@@H]1CCC(C)=C[C@@H]21 [Δ^9-THC, Δ^9-tetrahydrocannabinol]	20
